Tested on: TGFBR1 (human), P36897 [T204D]
Sequence (P36897 whole entry T204D, looked up): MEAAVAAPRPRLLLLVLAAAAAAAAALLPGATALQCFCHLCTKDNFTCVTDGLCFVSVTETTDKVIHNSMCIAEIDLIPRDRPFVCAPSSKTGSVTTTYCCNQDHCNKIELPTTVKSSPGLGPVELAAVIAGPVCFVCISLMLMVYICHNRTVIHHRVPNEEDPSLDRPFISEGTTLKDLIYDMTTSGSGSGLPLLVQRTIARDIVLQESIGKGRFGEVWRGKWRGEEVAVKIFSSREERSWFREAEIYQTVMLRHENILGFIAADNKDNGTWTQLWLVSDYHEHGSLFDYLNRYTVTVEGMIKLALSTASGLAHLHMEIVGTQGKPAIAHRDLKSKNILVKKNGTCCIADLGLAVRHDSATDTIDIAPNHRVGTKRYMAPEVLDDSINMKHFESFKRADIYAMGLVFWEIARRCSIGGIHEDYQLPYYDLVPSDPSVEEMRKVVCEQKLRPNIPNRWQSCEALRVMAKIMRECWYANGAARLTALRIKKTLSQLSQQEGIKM
Experiment: radiometric filter-binding kinase assay
Conditions: compound 1.0 µM
Kindly state residual activity for each of the entries shown.
Numbers only, in %.

Here is how some compounds turned out for residual activity.
Sample "CCn1c(-c2nonc2N)nc2cncc(CNC3CCNCC3)c21" — what was its residual activity? 90

Looking for the measured residual activity of CNC(=O)C1[C@H]2O[C@@](C)([C@@H]1N)n1c3ccccc3c3c4c(c5c6ccccc6n2c5c31)C(=O)NC4 (stereo partly specified) , can you help? 17

// returns reported residual activity for input "NCC(=O)Nc1ccc(-n2nc(C(F)(F)F)cc2-c2ccc3c(ccc4ccccc43)c2)cc1" 98

Param item = Nc1cccc2c1CN(C1CCC(=O)NC1=O)C2=O (stereo unspecified) ; retrieve measured residual activity. 105

Would you mind giving residual activity for every compound in the list below?
1. COc1cc(C(=O)N2CCOCC2)c(F)cc1Nc1ncc(C(F)(F)F)c(NC2CC2)n1
2. CCNc1nc(Nc2cc(F)c(C(=O)N3CCOCC3)cc2OC)ncc1C(F)(F)F

99
110

====

I'd appreciate it if you could supply residual activity values for the items below.
Molecular target: MAPKAPK5 (human) (UniProt Q8IW41)
Sequence (Q8IW41 whole entry, looked up): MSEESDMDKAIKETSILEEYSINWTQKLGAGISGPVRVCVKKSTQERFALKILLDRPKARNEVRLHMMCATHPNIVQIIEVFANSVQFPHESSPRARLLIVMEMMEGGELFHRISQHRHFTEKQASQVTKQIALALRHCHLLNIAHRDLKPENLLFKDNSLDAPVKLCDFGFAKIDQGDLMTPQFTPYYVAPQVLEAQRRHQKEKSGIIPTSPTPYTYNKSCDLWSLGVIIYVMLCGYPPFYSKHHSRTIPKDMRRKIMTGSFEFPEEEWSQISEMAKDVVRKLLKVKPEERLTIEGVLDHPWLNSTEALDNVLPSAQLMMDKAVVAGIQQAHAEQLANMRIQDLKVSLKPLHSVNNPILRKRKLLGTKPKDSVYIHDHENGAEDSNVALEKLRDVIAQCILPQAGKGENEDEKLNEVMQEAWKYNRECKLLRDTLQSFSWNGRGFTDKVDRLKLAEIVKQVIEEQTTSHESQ
Test: radiometric filter-binding kinase assay
Conditions: compound 10.0 µM
Give bare numbers, in %.

Consider the worked cases shown below.
Returns the measured residual activity for the input compound. Input: "NC(=O)Nc1ccc2c(c1)/C(=C/c1cc(-c3cccnc3)c[nH]1)C(=O)N2" 8

Please look up its residual activity: CC(C)C[C@H](NC(=O)CNC(=O)c1cc(Cl)ccc1Cl)B1OC(=O)CC(CC(=O)O)(C(=O)O)O1 (stereo not given in full) 92

Dear colleague, I am looking for the recorded residual activity of the following compound: "O=C(Nc1cccnc1)c1cc(-c2ccnc(F)c2)ccc1OCc1ccccc1" 114

Query: residual activity; subject: "C=CC(=O)N1CCC[C@@H](n2nc(-c3ccc(Oc4ccccc4)cc3)c3c(N)ncnc32)C1" 83

***
// query residual activity value for entry "N#Cc1c(O)c2c(-c3ccc(-c4ccccc4O)cc3)csc2[nH]c1=O" 52

====

Biological target: CaMK1 (human) (UniProt Q14012)
Sequence (Q14012 whole entry, looked up): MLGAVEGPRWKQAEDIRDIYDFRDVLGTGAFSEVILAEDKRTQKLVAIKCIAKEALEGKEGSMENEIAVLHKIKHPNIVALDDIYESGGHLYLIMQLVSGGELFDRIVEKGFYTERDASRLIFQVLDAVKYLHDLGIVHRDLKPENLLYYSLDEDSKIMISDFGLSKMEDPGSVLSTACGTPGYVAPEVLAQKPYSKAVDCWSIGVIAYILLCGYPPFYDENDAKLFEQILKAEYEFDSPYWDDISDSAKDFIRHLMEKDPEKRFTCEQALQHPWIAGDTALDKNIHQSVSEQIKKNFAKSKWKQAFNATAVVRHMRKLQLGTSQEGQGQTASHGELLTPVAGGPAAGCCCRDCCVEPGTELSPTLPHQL
Test: radiometric filter-binding kinase assay
Details: compound 0.1 µM
outcome.measure: residual activity (%)
Answers are plain numbers, in %.

Consider the molecule "Cc1ccc(-c2ccc3c(ccc4sc5c(c43)NC[C@@H](C)NC5=O)n2)cn1" and give its measured residual activity. 96

What residual activity value was documented for this molecule, "NC(=O)c1cc(-c2ccnc(NC3CCCCC3)c2)nc(N2CCNCC2)c1" ? 81

# input molecule: "c1ccc2c(-c3cnn4cc(-c5ccc(N6CCNCC6)cc5)cnc34)ccnc2c1" ; wanted: its residual activity 86

Return reported residual activity values for all items listed beneath this line.
1. NC(=O)c1cc2c(-c3cccc(-c4ccccc4)c3)cnc(N)c2s1
2. CN(C)C/C=C/C(=O)Nc1cccc(C(=O)Nc2ccc(Nc3nccc(-c4cccnc4)n3)cc2)c1
3. C=CC(=O)N1CCC[C@@H](n2nc(-c3ccc(Oc4ccccc4)cc3)c3c(N)ncnc32)C1
4. COc1cc(O)c2c(c1)/C=C/C[C@H](O)[C@H](O)C(=O)/C=C\C[C@H](C)OC2=O

1. 107
2. 87
3. 80
4. 88

The following molecules each have a reported value; give each one's residual activity.
1. CCCCCc1ccc(/C=C/[C@H](O)[C@@H](CO)NC)cc1
2. CC1=C(CO)C(=O)O[C@@H]([C@@H](C)[C@H]2CC[C@H]3[C@@H]4C[C@H]5O[C@]56[C@@H](O)C=CC(=O)[C@]6(C)C4CC[C@]23C)C1 (some centres undefined)

1: 106; 2: 92

====

Please go through the items and note down their residual activity.
Test system: LCK (mouse)
Assay: radiometric filter-binding kinase assay
Details: compound 10.0 µM; accession and sequence are those of the human protein
Answers are plain numbers, in %.

Below are worked cases with known answers.
# value lookup — system LCK (mouse), readout residual activity, item "FC(F)(F)c1ccc(-c2ccc(Oc3cncc4sc(-c5nn[nH]n5)cc34)cc2)cc1" 98

Query for LCK (mouse): what residual activity does the record show for "O=C(O)c1cc(N=Nc2ccc(S(=O)(=O)Nc3ccccn3)cc2)ccc1O" ? 97

What value of residual activity on LCK (mouse) does "NC(=O)Nc1ccc2c(c1)/C(=C/c1cc(-c3cccnc3)c[nH]1)C(=O)N2" have? 3

Form field: residual activity recorded for "CCOC(=O)c1ccc(N2NC(=O)/C(=C/c3ccc([N+](=O)[O-])o3)C2=O)cc1" with LCK (mouse) (enter value) 121

For each of the items listed, what is its residual activity?
1. NS(=O)(=O)OC[C@@H]1C[C@@H](n2ccc3c(N[C@H]4CCc5ccccc54)ncnc32)C[C@@H]1O
2. Cc1cc(SCc2sc(-c3ccc(C(F)(F)F)cc3)nc2C)ccc1OCC(=O)O

1. 110
2. 98

Working through the 4 molecules below one at a time, give residual activity for each.
1. O=S(=O)(c1ccc(F)c2nonc12)N1CCN(c2ncc(C(F)(F)F)cc2Cl)CC1
2. COc1cc(C(=O)N2CCOCC2)c(F)cc1Nc1ncc(C(F)(F)F)c(NC2CC2)n1
3. CCCCCc1ccc(/C=C/[C@H](O)[C@@H](CO)NC)cc1
4. C[C@H]1CCCC(=O)CCC/C=C/c2cc(O)cc(O)c2C(=O)O1

93
102
84
26

====

Molecular target: UniProtKB Q9P286
Sequence (Q9P286 whole entry, looked up): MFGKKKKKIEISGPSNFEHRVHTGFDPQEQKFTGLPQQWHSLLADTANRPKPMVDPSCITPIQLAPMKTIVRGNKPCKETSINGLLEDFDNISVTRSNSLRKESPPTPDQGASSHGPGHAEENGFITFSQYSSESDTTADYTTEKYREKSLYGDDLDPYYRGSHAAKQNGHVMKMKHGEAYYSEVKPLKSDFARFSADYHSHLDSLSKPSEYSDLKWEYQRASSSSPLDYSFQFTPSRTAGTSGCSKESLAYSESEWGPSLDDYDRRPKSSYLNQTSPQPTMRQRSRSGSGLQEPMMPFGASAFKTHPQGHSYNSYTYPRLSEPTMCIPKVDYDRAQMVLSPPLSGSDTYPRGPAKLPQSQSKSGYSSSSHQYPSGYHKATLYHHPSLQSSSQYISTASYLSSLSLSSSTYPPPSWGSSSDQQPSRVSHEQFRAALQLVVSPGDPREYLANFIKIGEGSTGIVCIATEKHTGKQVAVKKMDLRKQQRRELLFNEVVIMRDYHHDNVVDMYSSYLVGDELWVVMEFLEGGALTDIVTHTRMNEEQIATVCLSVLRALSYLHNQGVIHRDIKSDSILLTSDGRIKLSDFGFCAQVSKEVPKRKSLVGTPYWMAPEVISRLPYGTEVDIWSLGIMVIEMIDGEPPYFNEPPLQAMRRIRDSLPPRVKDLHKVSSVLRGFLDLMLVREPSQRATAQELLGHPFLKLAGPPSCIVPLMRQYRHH
Test: radiometric filter-binding kinase assay
Conditions: compound 0.1 µM
Provide the reported residual activity of each item.

Examples from the recorded data:
Query: residual activity; subject: "Cc1cc(NC(=O)c2cccc(NC(=O)/C=C/CN(C)C)c2)ccc1Nc1nccc(-c2cccnc2)n1" 100%

May I ask what residual activity has been recorded for CNC(=O)C1[C@H]2O[C@@](C)([C@@H]1N)n1c3ccccc3c3c4c(c5c6ccccc6n2c5c31)C(=O)NC4 (some centres undefined) ? 4%

May I ask what residual activity has been recorded for "Cc1ccc(Sc2cnc(Nc3cccc(Br)n3)s2)cc1C(=O)N1CCN(C(=O)CN)CC1" ? 62%

Recorded residual activity for "O=C(N[C@@H](COc1ccc2[nH]c(=O)[nH]c2c1)c1ccccc1)c1cccn(Cc2ccc(F)c(F)c2)c1=O" , please? 104%

residual activity lookup needed for "COc1ccc(N(C(=O)Nc2c(C)cccc2C)c2cc(Nc3ccc(N4CCN(C)CC4)cc3)ncn2)c(OC)c1" , thanks. 91%

Reported residual activity for "CCn1c(-c2nonc2N)nc2cncc(CNC3CCNCC3)c21" : what is it? 93%

Given "NC1(c2ccc(-c3nc4ccn5c(=O)[nH]nc5c4cc3-c3ccccc3)cc2)CCC1" , state its recorded residual activity. 101%

// returns reported residual activity for input "Cc1ccc(-c2ccc3c(ccc4sc5c(c43)NC[C@@H](C)NC5=O)n2)cn1" 108%

Now consider the entry below.
Request the reported residual activity associated with "Cn1c(=O)c2c(ncn2C)n(C)c1=O" 102%

====

Molecular target: MAPKAPK3 (human)
Assay: radiometric filter-binding kinase assay
Conditions: compound 10.0 µM
Assignment: determine reported residual activity for the given compounds.
Give bare numbers, in %.

Field: example entries. Status: answers known.
Entry "CNc1nc(-c2ccc3c(N)n[nH]c3c2)cc(N2C[C@@H](C(=O)NC3CCCCC3)CC[C@H]2C)n1" has what residual activity? 68

Consider the compound "NC1(c2ccc(-c3nc4ccn5c(=O)[nH]nc5c4cc3-c3ccccc3)cc2)CCC1" and give its measured residual activity. 94

Which value of residual activity has been reported for "Oc1ccc(/C=C/c2cc(O)cc(O)c2)cc1" in the records? 64

Hi! Can you tell me residual activity for each of these compounds?
1. Nc1cccc2c1CN(C1CCC(=O)NC1=O)C2=O (stereo not given)
2. O=C(N[C@@H](COc1ccc2[nH]c(=O)[nH]c2c1)c1ccccc1)c1cccn(Cc2ccc(F)c(F)c2)c1=O
3. COC(=O)/C=C/C(=O)OC

[86, 74, 87]

Parameters: items (list). Returns: residual activity for each item.
1. O=C(Nc1ccccc1-c1cn2c(CN3CCNCC3)csc2n1)c1cnc2ccccc2n1
2. O=C(NOC[C@H](O)CO)c1ccc(F)c(F)c1Nc1ccc(I)cc1Cl
3. O=c1c(O)c(-c2ccc(O)c(O)c2)oc2cc(O)c(O)c(O)c12
4. COc1cc(C(=O)N2CCOCC2)c(F)cc1Nc1ncc(C(F)(F)F)c(NC2CC2)n1

100
89
14
124

====

Target: MAPK13 (human)
Experiment: radiometric filter-binding kinase assay
Settings: compound 0.1 µM
I'd be grateful if you could share measured residual activity for these entries.
One number for each entry, in %.

Hello, I would appreciate it if you could give residual activity for each entry below.
1. CN1CCN(CCOc2cc(OC3CCOCC3)c3c(Nc4c(Cl)ccc5c4OCO5)ncnc3c2)CC1
2. C=CC(=O)N1CCC[C@@H](n2nc(-c3ccc(Oc4ccccc4)cc3)c3c(N)ncnc32)C1
3. COc1ccc2c(c1)c1c3c(c4c5ccccc5n(C)c4c1n2CC(O)CN(C)C)C(=O)NC3=O (centres undefined)
4. COc1ccc(N(C(=O)Nc2c(C)cccc2C)c2cc(Nc3ccc(N4CCN(C)CC4)cc3)ncn2)c(OC)c1
5. O=C(Nc1nc2cc(C(F)(F)F)cc(NC3CC3)n2n1)c1cccnc1

1: 91; 2: 88; 3: 89; 4: 97; 5: 90

Fill in residual activity for each of the 2 compounds listed.
1. O=C(Nc1ccccc1-c1cn2c(CN3CCNCC3)csc2n1)c1cnc2ccccc2n1
2. Cn1c(=O)c2c(ncn2C)n(C)c1=O

1: 91; 2: 88

Hi! Can you tell me residual activity for each of these compounds?
1. CNc1nc(-c2ccc3c(N)n[nH]c3c2)cc(N2C[C@@H](C(=O)NC3CCCCC3)CC[C@H]2C)n1
2. CCn1c(-c2nonc2N)nc2cncc(CNC3CCNCC3)c21

1. 113
2. 100
